assay: in vivo; conditions: rat, plasma, iv, 10 mg/kg
QUANTITY_KIND: half-life (min)
Answers are plain numbers, in min.

*Q* Fill in: half-life of Nc1nc(=O)n([C@@H]2CS[C@H](CO)O2)cc1F (racemic) [(±)-FTC] is ___
*A* 45.4

###

test: in vivo; settings: rat, plasma, iv, 100 mg/kg
QUANTITY_KIND: clearance (mL/min/kg)
One number for each entry, in mL/min/kg.

*Q* Fill in: clearance of Nc1nc(=O)n([C@@H]2CS[C@H](CO)O2)cc1F (racemic) [(±)-FTC] is ___
*A* 13.8

###

Provide the recorded viability at 100 µM for the entries that follow.
assay: Toxicity analysis in 2.2.15 cells, neutral red dye uptake; format: cell-based, human; conditions: human, 2.2.15 cells, 100 µM; read-out: DYE UPTAKE (% OF CONTROL) WELL C
Answers are plain numbers, in %.

For every item below, please supply its viability at 100 µM.
1. Nc1nc(=O)n([C@@H]2CS[C@H](CO)O2)cc1F (single isomer, unassigned) [(-)-FTC]
2. Nc1nc(=O)n([C@H]2CS[C@@H](CO)O2)cc1F [(+)-FTC]

*A*
1. 77.6
2. 72.1

###

system: HIV-1; experiment: microbe, parasite or virus in culture; details: Human immunodeficiency virus 1, CEM-TK(-), CEM-TK^(-) (LAV-1)
QUANTITY_KIND: EC50
Hey, just the number and the unit after it is fine.

*Q* Fill in: EC50 of Nc1nc(=O)n([C@@H]2CS[C@H](CO)O2)cc1F (racemic) [(±)-FTC] is ___
*A* 26 nM

###

experiment: in vivo; conditions: rat, plasma, iv, 100 mg/kg
QUANTITY_KIND: half-life (min)
Numbers only, in min.

*Q* Fill in: half-life of Nc1nc(=O)n([C@@H]2CS[C@H](CO)O2)cc1F (racemic) [(±)-FTC] is ___
*A* 58.1

###

Provide the recorded viability at 100 µM for the entries that follow.
experiment: Toxicity analysis in 2.2.15 cells, neutral red dye uptake; format: cell-based, human; details: human, 2.2.15 cells, 100 µM; read-out: DYE UPTAKE (% OF CONTROL) WELLB
Give bare numbers, in %.

Nc1nc(=O)n([C@H]2CS[C@@H](CO)O2)cc1F [(+)-FTC]; 66.3

*Q* Fill in: viability at 100 µM of Nc1nc(=O)n([C@@H]2CS[C@H](CO)O2)cc1F (single isomer, unassigned) [(-)-FTC] is ___
*A* 66.6

###

system: HIV-1; experiment: microbe, parasite or virus in culture; conditions: Human immunodeficiency virus 1, CEM (HTLV1118) NIH
QUANTITY_KIND: pEC50
Answers are plain numbers, as −log10 of the molar value.

*Q* Fill in: pEC50 of Nc1nc(=O)n([C@@H]2CS[C@H](CO)O2)cc1F (racemic) [(±)-FTC] is ___
*A* 7.05

###

assay: Growth inhibition of mitogen-stimulated uninfected human PBM cells, trypan blue exclusion; assay type: cell-based; conditions: human, pbm cells
QUANTITY_KIND: CC50 at 144 h

Nc1nc(=O)n([C@@H]2CS[C@H](CO)O2)cc1F (single isomer, unassigned) [(-)-FTC]; > 100 µM
Nc1nc(=O)n([C@H]2CS[C@@H](CO)O2)cc1F [(+)-FTC]; > 100 µM

Kindly consider the entry below.
*Q* Fill in: CC50 at 144 h of Nc1nc(=O)n([C@@H]2CS[C@H](CO)O2)cc1F (racemic) [(±)-FTC] is ___
*A* > 100 µM
